experiment: chemical genetic growth profiling, strain panel (AID 1159580);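 note: tested at 20 µM; growth read once vehicle control cultures reached saturation at 30 °C; 1 = growth at the plate median or of vehicle wells; lower values mean less growth of the strain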; settings: S. cerevisiae deletion strains, growth OD, locus YOR231W, strain MKK1, stronger effect = lower value
Hit rate of the full screen: of about 5,500 compounds, about 2,000 (36%) were called active. Another 18% or so got no clear call; they are omitted. The list shows a part of the results.
value_kind: normalized growth
Simply state the number, no unit and no words.

input: Return reported normalized growth; argument: COc1cc2c(cc1OC)-c1c(oc3cc(O)cc(O)c3c1=O)CO2
output: 1.05

input: Here is the next molecule: NS(=O)(=O)c1cc2c(cc1C(F)(F)F)NC(Cc1ccccc1)NS2(=O)=O (centres undefined)
output: 0.987

input: Here is the next molecule: CO[C@H]1[C@@H](O)[C@@H](C)O[C@H](O[C@H]2CCC3(C)C4CCC5(C)[C@@H](C6=CC(=O)OC6)CC[C@]5(O)[C@@H]4CC[C@]3(O)C2)[C@@H]1O (some centres undefined)
output: 1.04

input: Here is the next molecule: CO[C@@H]1C[C@H](O[C@H]2CC[C@]3(C)C4CC[C@]5(C)[C@@H](C6=CC(=O)OC6)CC[C@]5(O)[C@@H]4CC[C@]3(O)C2)O[C@H](C)[C@@H]1O (some centres undefined)
output: 1.05

###

assay: chemical genetic growth profiling, strain panel (AID 1159580);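 note: tested at 20 µM; growth read once vehicle control cultures reached saturation at 30 °C; 1 = growth at the plate median or of vehicle wells; lower values mean less growth of the strain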; conditions: S. cerevisiae deletion strains, growth OD, locus YKL009W, strain mrt4, stronger effect = lower value
In all, about 5,500 compounds went through this assay and about 2,000 (36%) were called active. Not shown: some 18% with an inconclusive outcome. The list shows a part of the results.
Checkbox rule: normalized growth lower than 1 = T; normalized growth not lower than 1 = F.

input: Quick check: normalized growth of O=c1c(O)cccc2c(C3Oc4cc(O)cc(O)c4CC3O)cc(O)c(O)c12 (stereo not given) under 1?
output: T

input: Here is the next molecule: CO[C@@H]1C[C@H](O[C@H]2CC[C@]3(C)C4CC[C@]5(C)[C@@H](C6=CC(=O)OC6)CC[C@]5(O)[C@@H]4CC[C@]3(O)C2)O[C@H](C)[C@@H]1O (stereo not given in full)
output: T

input: Here is the next molecule: CC[C@@]1(O)C(=O)OCc2c1cc1n(c2=O)Cc2cc3ccccc3nc2-1
output: T

input: Here is the next molecule: COc1ccc(-c2cc(=O)c3c(O)c(OC)c(O[C@H]4O[C@H](CO[C@@H]5O[C@@H](C)[C@H](O)[C@@H](O)[C@H]5O)[C@@H](O)[C@H](O)[C@H]4O)cc3o2)cc1
output: F

input: Here is the next molecule: COC1CC(O[C@H]2CC[C@]3(C=O)C4CC[C@]5(C)C(C6=CC(=O)OC6)CC[C@]5(O)C4CC[C@]3(O)C2)OC(C)C1O (stereo not given in full)
output: F

input: Here is the next molecule: O=C(O)CN(CCN(CC(=O)O)CC(=O)O)CC(=O)O
output: T

input: Here is the next molecule: COc1ccc(-c2cc(=O)c3c(O)c(OC)c(OC)cc3o2)cc1O
output: T

###

experiment: chemical genetic growth profiling, strain panel (AID 1159580);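 note: tested at 20 µM; growth read once vehicle control cultures reached saturation at 30 °C; 1 = growth at the plate median or of vehicle wells; lower values mean less growth of the strain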; settings: S. cerevisiae deletion strains, growth OD, locus YLL001W, strain dnm1, stronger effect = lower value
Hit rate of the full screen: of about 5,500 compounds, about 2,000 (36%) were called active. Another 18% or so got no clear call; they are omitted. This is one part of the list.
value_kind: normalized growth
Simply state the number, no unit and no words.

input: Return reported normalized growth; argument: CC(=O)O[C@@H]1CC2C(C)(CC[C@H](O)C2(C)C)C2CC[C@]3(C)C(=CC(=O)O[C@H]3c3ccoc3)C21C (stereo partly specified)
output: 0.993

input: Here is the next compound: C[C@@H]1CCC2[C@](C)(CO)[C@@H](O)CC[C@]2(C)[C@@]12CC[C@@](CO)(CCO)O2 (stereo partly specified)
output: 0.991

input: Here is the next compound: Cc1ncc(CO)c(CO)c1O
output: 0.999

input: Here is the next compound: COC(=O)N/N=C\c1c[n+]([O-])c2ccccc2[n+]1[O-]
output: 0.991

input: Here is the next compound: CC1(C)Oc2ccc3ccc(=O)oc3c2CC1O (stereo unspecified)
output: 0.987

input: Here is the next compound: CCCc1nn(C)c2c(=O)[nH]c(-c3cc(S(=O)(=O)N4CCN(C)CC4)ccc3OCC)nc12
output: 0.992

input: Here is the next compound: C/C=C(\C)C(=O)O[C@@H]1c2c(ccc3ccc(=O)oc23)OC(C)(C)[C@@H]1OC(C)=O
output: 0.972

input: Here is the next compound: C[N+]1(C)C[C@H](O)[C@H](C(=O)[O-])C1
output: 1

input: Here is the next compound: COc1cccc2c1CCC1=CC(=O)CC[C@@]12C
output: 1

input: Here is the next compound: CC[C@@]1(O)C(=O)OCc2c1cc1n(c2=O)Cc2cc3cc(O)ccc3nc2-1
output: 1

input: Here is the next compound: C=CCSSSCC=C
output: 0.994

input: Here is the next compound: C[C@@H]1CC[C@@]23CCC4(C)[C@@](C=CC5[C@@]6(C)CC[C@H](O)C(C)(C)C6CC[C@]54C)(OC2=O)C3[C@H]1C (stereo partly specified)
output: 1.02

input: Here is the next compound: O=S(=O)(O)O
output: 0.992

input: Here is the next compound: CC(C)c1cccc(C(C)C)c1O
output: 0.988

input: Here is the next compound: CC(C)C[C@@H](NC(=O)OCC1c2ccccc2-c2ccccc21)C(=O)O
output: 0.974

input: Here is the next compound: COC(=O)C[C@H]1C(C)(C)[C@@H](O)[C@@H]2CC3=C4CC(O)O[C@@H](c5ccoc5)[C@]4(C)CCC3[C@@]1(C)C2=O (stereo partly specified)
output: 0.994
